Hey, just so you know, these numbers are from ChEMBL document CHEMBL2029335.

- Tested on: Liver microsomes
- Assay remarks: Intrinsic clearance in human liver microsomes at 1 uM after 30 mins by LC-MS/MS analysis
- Format: ADME, Microsome
- Test parameters: microsomes, 0.5 h, 1 µM
Observed property: CLH

Inquiry: Respond only with CLH recorded for "COC(=O)N[C@H](C(=O)NN(CCC[C@@]1(Cc2ccccc2)C(=O)N([C@H]2c3ccccc3C[C@H]2O)C[C@H]1O)Cc1ccc(Br)cc1)C(C)(C)C"
Reply text: > 300 µL/min/mg

Inquiry: Respond only with CLH recorded for "COC(=O)N[C@H](C(=O)NN(CC[C@@]1(Cc2ccccc2)C(=O)N([C@H]2c3ccccc3C[C@H]2O)C[C@H]1O)Cc1ccc(Br)cc1)C(C)(C)C"
Reply text: > 300 µL/min/mg

Inquiry: Respond only with CLH recorded for "COC(=O)N[C@H](C(=O)NN(CC[C@@]1(Cc2ccccc2)C(=O)N([C@H]2c3ccccc3C[C@H]2O)C[C@@H]1O)Cc1ccc(-c2cccnc2)cc1)C(C)(C)C"
Reply text: 120 µL/min/mg
